Test: Cytotoxicity assay (MTS colorimetric method), relative growth rate
Format: cell-based, murine
Settings: mouse, RAW264.7 macrophage cells; 0.1 μM, 24 hours, MTS; blank 100.05±3.95%; read-out: relative growth rate (RGR) of cells
Method: 1.1 Experimental cell strain and Materials: murine peritoneal macrophage cell line RAW264.7 were purchased from the Cell Bank of Shanghai Institutes for Biological Sciences, CAS; DMEM high glucose medium were purchased from GIBCO; MTS were purchased from Promega, prepared into 300 mmol/L in PBS (pH 6.0) and stored at −20° C. in darkness. […]
Where a SMILES comes first, the peptide text is derived from it.
metric.name: viability at 24 h, 0.1 µM (%)
Give the value in % but do not write % after it.

For the compound N=C(N)NCCC[C@H](NC(=O)[C@@H]1CCCN1C(=O)[C@H](CC(N)=O)NC(=O)[C@@H](N)CCCNC(=N)N)C(=O)NCC(=O)N[C@@H](CCC(=O)O)C(=O)N[C@@H](CCC(=O)O)C(=O)NCC(=O)NCC(=O)N1CCC[C@H]1C(=O)N[C@@H](Cc1c[nH]c2ccccc12)C(=O)O [H-RN, RNPRGEEGGPW] (H-RNPRGEEGGPW-OH; N-terminus assumed) , give its measured viability at 24 h, 0.1 µM value.
96.9

###

Assay: Cytotoxicity assay (MTS colorimetric method), relative growth rate
Format: cell-based, murine
Conditions: mouse, RAW264.7 macrophage cells; 1 μM, 24 hours, MTS; blank 100.05±3.95%; read-out: relative growth rate (RGR) of cells
Where a SMILES comes first, the peptide text is derived from it.
metric.name: viability at 24 h, 1 µM (%)
State the answer as a number, implicitly in %.

Write down viability at 24 h, 1 µM measured for item N=C(N)NCCC[C@H](NC(=O)[C@@H]1CCCN1C(=O)[C@H](CC(N)=O)NC(=O)[C@@H](N)CCCNC(=N)N)C(=O)NCC(=O)N[C@@H](CCC(=O)O)C(=O)N[C@@H](CCC(=O)O)C(=O)NCC(=O)NCC(=O)N1CCC[C@H]1C(=O)N[C@@H](Cc1c[nH]c2ccccc12)C(=O)O [H-RN, RNPRGEEGGPW] (H-RNPRGEEGGPW-OH; N-terminus assumed)
100

###

Experiment: Cytotoxicity assay (MTS colorimetric method), relative growth rate
Assay type: cell-based, murine
Settings: mouse, RAW264.7 macrophage cells; 100 μM, 24 hours, MTS; blank 100.05±3.95%; read-out: relative growth rate (RGR) of cells
Where a SMILES comes first, the peptide text is derived from it.
metric.name: viability at 24 h, 100 µM (%)
Output spec: scalar in %, unitless text.

Specify viability at 24 h, 100 µM for N=C(N)NCCC[C@H](NC(=O)[C@@H]1CCCN1C(=O)[C@H](CC(N)=O)NC(=O)[C@@H](N)CCCNC(=N)N)C(=O)NCC(=O)N[C@@H](CCC(=O)O)C(=O)N[C@@H](CCC(=O)O)C(=O)NCC(=O)NCC(=O)N1CCC[C@H]1C(=O)N[C@@H](Cc1c[nH]c2ccccc12)C(=O)O [H-RN, RNPRGEEGGPW] (H-RNPRGEEGGPW-OH; N-terminus assumed) and stop.
101

###

Experiment: Cytotoxicity assay (MTS colorimetric method), relative growth rate
Format: cell-based, murine
Conditions: mouse, RAW264.7 macrophage cells; 10 μM, 24 hours, MTS; blank 100.05±3.95%; read-out: relative growth rate (RGR) of cells
Protocol: 1.1 Experimental cell strain and Materials: murine peritoneal macrophage cell line RAW264.7 were purchased from the Cell Bank of Shanghai Institutes for Biological Sciences, CAS; DMEM high glucose medium were purchased from GIBCO; MTS were purchased from Promega, prepared into 300 mmol/L in PBS (pH 6.0) and stored at −20° C. in darkness. […]
Where a SMILES comes first, the peptide text is derived from it.
metric.name: viability at 24 h, 10 µM (%)
Answer with a number only, understood to be in %.

Provide viability at 24 h, 10 µM value for the following compound: N=C(N)NCCC[C@H](NC(=O)[C@@H]1CCCN1C(=O)[C@H](CC(N)=O)NC(=O)[C@@H](N)CCCNC(=N)N)C(=O)NCC(=O)N[C@@H](CCC(=O)O)C(=O)N[C@@H](CCC(=O)O)C(=O)NCC(=O)NCC(=O)N1CCC[C@H]1C(=O)N[C@@H](Cc1c[nH]c2ccccc12)C(=O)O [H-RN, RNPRGEEGGPW] (H-RNPRGEEGGPW-OH; N-terminus assumed)
98.3
